B1: PTPRD (parent)
chain: ITWFKDFLPVDTSNNNGRIKQLRS

# Variants of: B1
# PROTOCOL_TEXT: protein stability index of a GFP-peptide fusion (GPS, HEK-293T) (PSI 1-6); higher = more stable;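 further: lentivirally expressed fusions sorted by FACS into six bins by GFP to DsRed ratio, PSI derived from sequencing read proportions per bin multiplied by bin number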
# EXPERIMENTAL_PARAMETERS: c terminus: a fixed tail appended
Overview of reported protein stability index across a group of variants:
I only need the number, thanks.

N16W : 2.17

**Q:** I'd like to know its protein stability index. The variant in question is `T2Q`
**A:** 1.84

**Q:** Let us now turn to `N16C`
**A:** 2.09

**Q:** Lookup `L22S`
**A:** 2.04

**Q:** Request: `P9K`
**A:** 1.96

**Q:** `K5F` , same question.
**A:** 1.97

**Q:** Try the variant `K5D`
**A:** 2.44

**Q:** Record: `T12K`
**A:** 2.01

**Q:** And `V10L` ?
**A:** 1.95

**Q:** Field entry: `K5I`
**A:** 2.19

**Q:** Now consider `S24R` and answer again.
**A:** 2.18

**Q:** Let us now turn to `S13I`
**A:** 1.41

**Q:** # iterate: `N16P`
**A:** 2.32

**Q:** Would you kindly repeat that for `L8R` ?
**A:** 2.41

**Q:** Please give the result for `T12G` too.
**A:** 1.83

Data provenance: the supplement of paper PMC10567573
